B1: scFv; the commonest letter at each place (parent)
chain 1: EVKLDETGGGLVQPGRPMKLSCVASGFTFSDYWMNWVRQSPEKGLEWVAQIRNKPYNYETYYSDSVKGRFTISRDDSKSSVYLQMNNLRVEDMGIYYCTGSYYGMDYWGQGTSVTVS
chain 2: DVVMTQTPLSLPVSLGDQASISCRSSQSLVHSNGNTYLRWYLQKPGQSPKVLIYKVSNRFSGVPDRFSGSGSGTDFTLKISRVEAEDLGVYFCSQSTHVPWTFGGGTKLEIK

Variants of: B1
assay.text: yeast surface expression (ratio to wild type); higher = more expressed
condition.context: format: scFv 4-4-20, heavy + light
assay.endpoint: yeast surface expression
Answers are plain numbers.

Data request: Any idea what its yeast surface expression is? The variant is chain 1 S101F G109S
Data returned: 0.424

// each listed variant needs a value for yeast surface expression
1. chain 1 Y102M Y103F D106Y
2. chain 1 T28F W36H
3. chain 1 Y102H D106G
4. chain 1 S101Q M105S
5. chain 1 F29I W33D M34W
6. chain 1 D31V W33K

Data returned:
[0.388, 0.598, 0.856, 0.853, 0.719, 0.795]

Each of the following entries comes with a recorded value; kindly state yeast surface expression for each.
1. chain 1 S101E G104K M105C
2. chain 1 W33E V37L
3. chain 1 G104D W108T
4. chain 1 D31V Y32L
5. chain 1 Y102P M105S
6. chain 1 Y107I W108R
7. chain 1 G100A W108Y

Data returned:
1: 0.346; 2: 0.674; 3: 0.417; 4: 0.584; 5: 0.416; 6: 0.466; 7: 0.892

Give yeast surface expression for each listed item.
1. chain 1 S30A D31A V37C
2. chain 1 T28S

Data returned:
0.739
0.985

Look up yeast surface expression for the entries below, preserving their order.
1. chain 1 D31C W36G
2. chain 1 T28I F29R

Data returned:
0.738
0.695
